Measured values drawn from ChEMBL document CHEMBL4513216 for this set.

For each entry below, report its cytotoxicity at 10 µM value.
- assayOverview: Toxicity liver stage against HepG2, at 10uM
- Format: cell-based
- Parameters: test concentration 10 uM, cell line HepG2-A16-CD81EGFP
- conditionInfo: human, HepG2-A16-CD81EGFP cells; read-out: INHIBITION
A number alone suffices; assume %.

GET /values?readout=cytotoxicity at 10 µM&item= CCNC(=O)[C@@H]1C[C@H](N)CN1Cc1ccc(-c2cc[nH]n2)o1
-47.6

GET /values?readout=cytotoxicity at 10 µM&item= CN1CCN(CCNC(=O)C(OC2CCCC2)c2ccccc2)CC1 (stereo not drawn)
-9.43

GET /values?readout=cytotoxicity at 10 µM&item= Cc1nc(CN2C(=O)C[C@@H]3[C@@H]2CCN3C(=O)C2CCOCC2)cs1
-10.8

GET /values?readout=cytotoxicity at 10 µM&item= Cc1ccc(OC(C)CNC(=O)c2c[nH]nn2)cc1 (stereo not drawn)
-0.0422

GET /values?readout=cytotoxicity at 10 µM&item= COc1ccc(C(=O)N2CCC(c3nccn3C(C)C)CC2)cc1OC
1.52

GET /values?readout=cytotoxicity at 10 µM&item= Cc1cc(C)n(CC(C)NC(=O)C2(c3ccccc3F)CC2)n1 (stereo not drawn)
-0.844

GET /values?readout=cytotoxicity at 10 µM&item= O=C(c1ccsc1)N1CC[C@H]2C[C@@H](c3nnc(C4CC4)o3)O[C@@H]2C1
-7.36

GET /values?readout=cytotoxicity at 10 µM&item= Cc1noc(C(C)C)c1C(=O)NCC1CCCN1Cc1ccccc1 (stereo not drawn)
-4.45

GET /values?readout=cytotoxicity at 10 µM&item= Cn1c(C2CC2)nc2cc(NC(=O)C3CC=CC3)ccc21
2.8

GET /values?readout=cytotoxicity at 10 µM&item= c1cc(CN2CCCn3cnc(COCC4CC4)c3C2)ccn1
7.31

GET /values?readout=cytotoxicity at 10 µM&item= CCOc1ccc(NC(=O)NCc2csc(NC)n2)cc1C
-3.91

GET /values?readout=cytotoxicity at 10 µM&item= O=C1CCC2(CCN(Cc3cscn3)CC2)CN1CCCO
-5.26

GET /values?readout=cytotoxicity at 10 µM&item= Cc1cc(C)n(Cc2ccc(-c3noc(C(=O)NC[C@@H](C)O)n3)cc2)n1
-9.62

GET /values?readout=cytotoxicity at 10 µM&item= COCCN(C)C[C@@H]1CN(C(=O)c2sc3ccccc3c2C)C[C@@H]1CO
-7.13

GET /values?readout=cytotoxicity at 10 µM&item= O=C(C1CCC1)N1CCn2c(COc3ncccn3)nnc2C1
3.09

GET /values?readout=cytotoxicity at 10 µM&item= Cn1nc(C(=O)N2CCOCC2)cc1C(=O)Nc1c(Cl)cccc1Cl
12

GET /values?readout=cytotoxicity at 10 µM&item= CCS(=O)(=O)N1Cc2c(Cn3cccc3)nn(C(C)C)c2C1
13.6

GET /values?readout=cytotoxicity at 10 µM&item= CC(C)c1cncnc1N1CC[C@H](N2CCOCC2)[C@H](CCCO)C1
5.86

GET /values?readout=cytotoxicity at 10 µM&item= CC(C)(CNC(=O)C(C)(C)Oc1ccc2c(c1)CCCC2=O)C(N)=O
-2.25

GET /values?readout=cytotoxicity at 10 µM&item= Cc1cccc2c1CCN(c1cc(N3CCCC3CO)ncn1)C2 (stereo not drawn)
-3.44

GET /values?readout=cytotoxicity at 10 µM&item= COC(=O)CCNC(=O)c1nc(NS(=O)(=O)c2ccccc2)sc1C
8.23

GET /values?readout=cytotoxicity at 10 µM&item= COCC(=O)NCCCn1nc2ccccn2c1=O
11.8

GET /values?readout=cytotoxicity at 10 µM&item= Cc1nccn1CCN1C(=O)CC2(CCCC2)CC1=O
-2.11
